# Assay text: Partition coefficient (LogP) value was evaluated
# Assay type: physicochemical
# Protocol conditions: octanol/water
Parameter: logP

Structure string	Obs value
CC(C)C[C@H](O)[C@H](O)[C@H](CC1CCCCC1)NC(=O)OC(C)(C)C	4
CC(C)C[C@H](O)[C@H](O)[C@@H](N)CC1CCCCC1	2
CC(C)C[C@H](O)[C@H](O)[C@H](CC1CCCCC1)NC(=O)[C@H](Cc1csc(N)n1)NC(=O)[C@H](Cc1ccccc1)NS(=O)(=O)N1CCOCC1	3.1
